Biological target: Vascular endothelial growth factor receptor 3 (Homo sapiens, UniProt P35916)
Sequence (P35916 whole entry): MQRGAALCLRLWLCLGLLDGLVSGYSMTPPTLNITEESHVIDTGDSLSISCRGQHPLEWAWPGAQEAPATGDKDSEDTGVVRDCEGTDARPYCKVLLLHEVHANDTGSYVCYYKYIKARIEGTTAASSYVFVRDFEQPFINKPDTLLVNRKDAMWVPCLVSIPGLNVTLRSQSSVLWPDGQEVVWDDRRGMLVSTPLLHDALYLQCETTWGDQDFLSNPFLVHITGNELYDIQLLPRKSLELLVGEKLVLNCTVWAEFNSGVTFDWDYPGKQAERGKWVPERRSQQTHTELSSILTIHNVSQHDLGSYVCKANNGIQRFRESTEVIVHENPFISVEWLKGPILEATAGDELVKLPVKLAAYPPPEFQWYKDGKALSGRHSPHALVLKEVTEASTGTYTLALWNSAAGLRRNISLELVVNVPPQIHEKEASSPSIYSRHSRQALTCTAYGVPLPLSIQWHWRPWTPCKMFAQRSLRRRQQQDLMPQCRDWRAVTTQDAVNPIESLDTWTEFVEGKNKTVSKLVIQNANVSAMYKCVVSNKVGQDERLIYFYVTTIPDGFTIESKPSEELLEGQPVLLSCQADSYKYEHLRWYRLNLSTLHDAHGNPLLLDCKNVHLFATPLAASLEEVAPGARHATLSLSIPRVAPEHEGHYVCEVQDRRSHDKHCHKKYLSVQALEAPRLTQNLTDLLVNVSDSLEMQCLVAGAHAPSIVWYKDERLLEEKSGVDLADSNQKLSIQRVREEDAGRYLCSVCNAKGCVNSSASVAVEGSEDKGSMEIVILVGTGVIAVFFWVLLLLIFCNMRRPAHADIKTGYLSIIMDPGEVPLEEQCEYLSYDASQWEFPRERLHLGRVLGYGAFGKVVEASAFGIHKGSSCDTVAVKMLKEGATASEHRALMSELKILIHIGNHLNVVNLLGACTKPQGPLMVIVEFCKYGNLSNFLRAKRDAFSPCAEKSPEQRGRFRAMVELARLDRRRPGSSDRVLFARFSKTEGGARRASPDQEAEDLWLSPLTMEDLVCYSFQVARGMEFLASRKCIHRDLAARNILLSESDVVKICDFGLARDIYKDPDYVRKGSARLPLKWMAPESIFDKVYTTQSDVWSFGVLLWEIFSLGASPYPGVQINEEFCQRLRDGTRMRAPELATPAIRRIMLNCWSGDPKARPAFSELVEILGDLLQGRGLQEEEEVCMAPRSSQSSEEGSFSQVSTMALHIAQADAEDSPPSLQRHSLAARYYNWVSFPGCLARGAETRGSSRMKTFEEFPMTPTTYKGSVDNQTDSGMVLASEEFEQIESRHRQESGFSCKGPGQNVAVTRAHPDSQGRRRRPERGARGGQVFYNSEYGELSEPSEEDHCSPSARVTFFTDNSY
pIC50: −log10 of the molar value.
The entries below are paired with their reported pIC50.

In the examples that follow, each entry is paired with its recorded pIC50.
c1ccc2sc(-c3ccc(Nc4ncnc5ccsc45)cc3)nc2c1: < 5.00
CNc1nccc(Nc2ccc(-c3nc4ccccc4s3)cc2)n1: 5.16
COc1cc(Nc2ncnc3ccsc23)ccc1-c1nc2ccccc2s1: < 5.00

Pending molecule:
Prompt: Reported pIC50, molecule "COc1nc(Nc2ccc(-c3nc4ccccc4s3)cc2)c2cc[nH]c2n1" : ____
Response: < 5.00

----------
Target: Receptor tyrosine-protein kinase erbB-2 (Homo sapiens)
Sequence (P04626 whole entry): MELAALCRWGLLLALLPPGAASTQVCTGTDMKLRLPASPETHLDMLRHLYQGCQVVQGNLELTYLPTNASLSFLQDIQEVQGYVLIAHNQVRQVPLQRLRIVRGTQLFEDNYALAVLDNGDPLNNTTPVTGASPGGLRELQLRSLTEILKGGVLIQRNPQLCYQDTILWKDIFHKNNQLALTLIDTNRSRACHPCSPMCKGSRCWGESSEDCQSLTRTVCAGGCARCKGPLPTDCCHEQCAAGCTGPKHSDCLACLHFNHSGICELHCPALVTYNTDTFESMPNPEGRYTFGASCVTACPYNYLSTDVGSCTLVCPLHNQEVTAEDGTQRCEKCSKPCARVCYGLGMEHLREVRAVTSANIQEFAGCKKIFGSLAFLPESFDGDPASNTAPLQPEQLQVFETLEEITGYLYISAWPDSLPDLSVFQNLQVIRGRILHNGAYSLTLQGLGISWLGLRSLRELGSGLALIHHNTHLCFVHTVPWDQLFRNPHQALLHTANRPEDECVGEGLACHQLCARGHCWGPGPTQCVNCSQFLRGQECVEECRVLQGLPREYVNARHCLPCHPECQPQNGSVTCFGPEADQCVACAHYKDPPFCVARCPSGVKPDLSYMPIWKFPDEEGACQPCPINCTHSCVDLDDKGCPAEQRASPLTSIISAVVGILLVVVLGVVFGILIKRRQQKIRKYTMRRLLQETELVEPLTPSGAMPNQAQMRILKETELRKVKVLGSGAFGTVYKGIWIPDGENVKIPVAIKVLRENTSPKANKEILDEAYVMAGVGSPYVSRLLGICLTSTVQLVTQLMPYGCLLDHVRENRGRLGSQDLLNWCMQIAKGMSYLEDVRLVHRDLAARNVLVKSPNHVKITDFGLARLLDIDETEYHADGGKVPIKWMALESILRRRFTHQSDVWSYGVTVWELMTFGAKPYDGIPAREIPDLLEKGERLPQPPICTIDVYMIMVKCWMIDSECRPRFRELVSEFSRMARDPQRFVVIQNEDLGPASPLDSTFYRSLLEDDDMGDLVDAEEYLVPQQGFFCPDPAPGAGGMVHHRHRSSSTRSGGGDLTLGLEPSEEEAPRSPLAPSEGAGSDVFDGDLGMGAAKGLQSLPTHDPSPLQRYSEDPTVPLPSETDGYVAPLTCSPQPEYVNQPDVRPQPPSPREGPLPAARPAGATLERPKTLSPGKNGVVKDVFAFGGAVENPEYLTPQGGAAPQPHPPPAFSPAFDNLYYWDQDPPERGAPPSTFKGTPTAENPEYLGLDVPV
The following molecules are shown together with reported IC50 values.

Example molecules with recorded IC50:
Fc1cc(-c2nc3ccccc3s2)ccc1Nc1ncnc2ccsc12: > 10 µM
COc1nc(Nc2ccc(-c3nc4ccccc4s3)cc2)c2cc[nH]c2n1: > 10 µM
c1ccc2sc(-c3ccc(Nc4ncnc5ccsc45)cc3)nc2c1: > 10 µM

Let's switch to this molecule now.
Prompt: Please tell me: IC50 of "CNc1nccc(Nc2ccc(-c3nc4ccccc4s3)cc2)n1" , system Receptor tyrosine-protein kinase erbB-2 (Homo sapiens)?
Response: > 10 µM

----------
Biological target: Aurora kinase A (Homo sapiens)
Sequence (O14965 whole entry): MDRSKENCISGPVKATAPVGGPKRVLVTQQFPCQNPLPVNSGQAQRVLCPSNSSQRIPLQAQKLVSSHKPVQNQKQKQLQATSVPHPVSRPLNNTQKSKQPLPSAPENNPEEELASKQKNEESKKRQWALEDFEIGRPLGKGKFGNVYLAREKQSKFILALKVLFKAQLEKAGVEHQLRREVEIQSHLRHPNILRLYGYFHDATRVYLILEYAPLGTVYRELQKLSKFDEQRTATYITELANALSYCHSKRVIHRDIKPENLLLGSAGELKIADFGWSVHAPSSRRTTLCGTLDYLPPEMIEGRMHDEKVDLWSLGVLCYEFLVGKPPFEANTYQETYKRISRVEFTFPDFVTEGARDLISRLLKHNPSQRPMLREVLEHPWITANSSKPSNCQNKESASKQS
pIC50: −log10 of the molar value.
readout_name: pIC50

These recorded examples may help you get a feel for the data.
COc1cc(Nc2ncnc3[nH]ccc23)ccc1-c1nc2ccccc2s1: < 5.00
CNc1ccnc(Nc2ccc(-c3nc4ccccc4s3)cc2)n1: 5.82

Prompt: Would you kindly share the measured pIC50 for "COc1nc(Nc2ccc(-c3nc4ccccc4s3)cc2)c2cc[nH]c2n1" ?
Response: < 5.00

Prompt: Same again, this time with "CNc1nccc(Nc2ccc(-c3nc4ccccc4s3)cc2)n1"
Response: < 5.00

Prompt: How about "c1ccc2sc(-c3ccc(Nc4ncnc5ccsc45)cc3)nc2c1" ?
Response: 5.55

Prompt: Further, for "COc1cc2ncnc(Nc3ccc(-c4nc5ccccc5s4)c(OC)c3)c2cc1OC" ?
Response: < 5.00

----------
pIC50: −log10 of the molar value.
Each entry below carries its measured pIC50, system: Aurora kinase A (Homo sapiens).
readout_name: pIC50

Known pIC50 results, listed for orientation:
COc1cc2ncnc(Nc3ccc(F)c(Cl)c3)c2cc1OC: 5.19
Cc1cc(Nc2cc(Nc3ccc(-c4nc5ccccc5s4)cc3)ccn2)[nH]n1: 5.89

A. c1ccc2sc(-c3ccc(Nc4ncnc5[nH]ccc45)cc3)nc2c1
B. CN1CCN(c2ccnc(Nc3ccc(-c4nc5ccccc5s4)cc3)n2)CC1
C. Cc1cc(Nc2ccnc(Nc3ccc(-c4nc5ccccc5s4)cc3)n2)n[nH]1
Prompt: Put these in order: smallest pIC50 first, largest last. List the labels, following the order given in the request.
Response: A, B, C

// data source = ChEMBL document CHEMBL1153282
